- experimental_protocol: TOX21_p53_BLA_p3_viability: Viability Assessment in the Tox21 HCT-116 p53 Agonism Beta-lactamase Assay, Phase 3 (AID 2283593);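 further: cells exposed to compound for 16 h before reading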
Records with an inconclusive call do not appear. Calls of active or inactive are those of the source. How the source made its calls: active means hit-call score of the fitted dose curve at least 0.9, where 1 is the maximum; inconclusive means response in the unintended direction; inactive means score below 0.9.
experimental_readout: outcome

O=C(O)c1cc(C(=O)O)cc(C(=O)O)c1
inactive
Cc1cccc(C)c1NC(=O)NC1=CCCN1C
inactive
CNC(=O)c1ccccc1
inactive

* * *

- experimental_protocol: CCTE_Shafer_MEA_dev_LDH: CCTE's Lactate Dehydrogenase Assay for Cytotoxicity in the Neural Network Formation Assay, Shafer Lab (AID 2284068);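 further: exposure for twelve days from plating with re-dosing on DIV 5 and 9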
Inconclusive results are not listed. Active and inactive are the calls of the source. How the source made its calls: active means hit-call score of the fitted dose curve at least 0.9, where 1 is the maximum; inconclusive means response in the unintended direction; inactive means score below 0.9.
Entry note: the call must match one of 1 (yes) (active), 0 (no) (inactive)

O=C1CC2(CCCC2)CC(=O)N1CCCCN1CCN(c2ncccn2)CC1
0 (no)
CCCCCC(C)(CC)C(=O)NC (centres undefined)
1 (yes)
CN(C)CCCn1cc(C2=C(c3c[nH]c4ccccc34)C(=O)NC2=O)c2ccccc21
1 (yes)

# evaluate next
Q: What call does the record list for C[C@@H]1CCO[C@H]2Cn3cc(C(=O)NCc4ccc(F)cc4F)c(=O)c(O)c3C(=O)N12 ?
A: 1 (yes)

* * *

- system_under_test: Cellular tumor antigen p53 (Homo sapiens) (UniProt P04637)
- Sequence (P04637 whole entry, looked up): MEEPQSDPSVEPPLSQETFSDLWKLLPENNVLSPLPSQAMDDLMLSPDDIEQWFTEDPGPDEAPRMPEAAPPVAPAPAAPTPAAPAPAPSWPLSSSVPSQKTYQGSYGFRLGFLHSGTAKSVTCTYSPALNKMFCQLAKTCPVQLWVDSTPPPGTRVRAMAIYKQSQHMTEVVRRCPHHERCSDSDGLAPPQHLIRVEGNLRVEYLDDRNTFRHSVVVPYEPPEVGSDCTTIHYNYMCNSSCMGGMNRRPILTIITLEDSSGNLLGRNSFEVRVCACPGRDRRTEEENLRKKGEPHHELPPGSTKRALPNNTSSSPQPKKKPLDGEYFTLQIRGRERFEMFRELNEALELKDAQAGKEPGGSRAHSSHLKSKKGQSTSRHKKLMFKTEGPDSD
- experimental_protocol: TOX21_p53_BLA_p4_ratio: Tox21 HCT-116 p53 Agonism Beta-lactamase Assay, Ratio, Phase 4 (AID 2283601)
- Procedure: TOX21_p53_BLA_p4 is a cell-based, single-readout assay that uses HCT116, a human intestinal cell line, […] in a 1536-well plate.TOX21_p53_BLA_p4_ratio is an assay readout measuring reporter gene via receptor activity and designed using inducible reporter (beta lactamase induction) detected with GAL4 b-lactamase reporter gene. […] This assay endpoint, TOX21_p53_BLA_p4_ratio, was analyzed in the positive analysis fitting direction relative to DMSO as the negative control and baseline of activity. […]
Results filed as inconclusive are left out. The source made the active and inactive calls. The calls were made as follows: active = hit-call score of the fitted dose curve at least 0.9, where 1 is the maximum; inconclusive = response in the unintended direction; inactive = score below 0.9.
Entry note: the call must match one of T = active, F = inactive

Previously resolved entries follow.
Cc1ccc(/C(=C\CN2CCCC2)c2ccccn2)cc1
F
Cc1cc(=O)c(C(=O)N[C@@H](C(=O)N[C@@H]2C(=O)N3C(C(=O)O)=C(CSc4nnnn4C)CS[C@H]23)c2ccc(O)cc2)c[nH]1
F
COc1cc(Nc2c(C#N)cnc3cc(OCCCN4CCN(C)CC4)c(OC)cc23)c(Cl)cc1Cl
T
Cc1ccnc2c1NC(=O)c1cccnc1N2C1CC1
F
O=C(Cn1c(=O)sc2ccc(Cl)cc21)N1CCN(CCO)CC1
F
CCC=O
F
Cc1ccc2cccnc2c1
F
O=C(O)c1ccc(NC(=O)[C@H](Cc2ccc(O)cc2)NC(=O)c2ccccc2)cc1
F

Q: What call does the record list for N[C@@H](CS)C(=O)O ?
A: F

Q: What call does the record list for CCOCCC(=O)OCC ?
A: F

Q: What call does the record list for ClC/C=C\CCl ?
A: F

Q: What call does the record list for ClC(Cl)Cl ?
A: F

Q: What call does the record list for NC(Cc1ccccc1)C(=O)O (stereo unspecified) ?
A: F

Q: What call does the record list for COc1cc2c(cc1OC)[C@@H](c1ccccc1)CN(C)CC2 ?
A: F

Q: What call does the record list for CCO/C([O-])=N/c1c[n+](N2CCOCC2)no1 ?
A: F

Q: What call does the record list for COc1cc(C(=O)N2CCCCCCC2)cc(OC)c1OC ?
A: F

Q: What call does the record list for C=Cc1ccccn1 ?
A: F

Q: What call does the record list for NC1CCN(c2nc3c(cc2F)c(=O)c(C(=O)O)cn3-c2ccc(F)cc2F)C1 (stereo unspecified) ?
A: F

Q: What call does the record list for Cc1nc(-c2ccc(Cl)cc2)oc1COC(C)(C)C(=O)O ?
A: F

Q: What call does the record list for CN1CCC(=C2c3ccccc3CC(=O)c3sccc32)CC1 ?
A: F

Q: What call does the record list for CN1CCN(C2=Nc3ccccc3Oc3ccc(Cl)cc32)CC1 ?
A: F

* * *

- experimental_protocol: IUF_NPC4_neurite_length_120hr: Leibniz Research Institute for Environmental Medicine (IUF) 120-hour Neuronal Morphology Assay for Neurite Length (NPC4) (AID 2284302)
Activity calls are given as the source filed them. The calls were made as follows: active = hit-call score of the fitted dose curve at least 0.9, where 1 is the maximum; inactive = score below 0.9.
Entry note: the call must match one of T = active, F = inactive

Previously resolved entries follow.
C[C@@H]1CC[C@@H](C(C)(C)O)[C@H](O)C1
F
CC(CNC(=S)[S-])NC(=S)[S-].[Zn+2] (stereo unspecified)
T
F
F
BrC1CC(Br)CC(Br)CC(Br)CC(Br)CC(Br)C1 (stereo unspecified)
T
C[C@@H]1CCO[C@H]2Cn3cc(C(=O)NCc4ccc(F)cc4F)c(=O)c(O)c3C(=O)N12
F

# evaluate next
Q: What call does the record list for Cc1[nH]n(C)c(=O)c1C(=O)c1ccc(C(F)(F)F)cc1S(C)(=O)=O ?
A: F

* * *

- experimental_protocol: IUF_NPC1a_proliferation_area_72hr: Leibniz Research Institute for Environmental Medicine (IUF) 72-hour Neural Progenitor Cell Proliferation Area Assay (NPC1a) (AID 2284208)
Activity calls are given as the source filed them. The calls were made as follows: active = hit-call score of the fitted dose curve at least 0.9, where 1 is the maximum; inactive = score below 0.9.
Entry note: the call must match one of true (active), false (inactive)

Previously resolved entries follow.
Cc1[nH]n(C)c(=O)c1C(=O)c1ccc(C(F)(F)F)cc1S(C)(=O)=O
false
CCc1ccccc1
false
C[C@@H]1CCO[C@H]2Cn3cc(C(=O)NCc4ccc(F)cc4F)c(=O)c(O)c3C(=O)N12
false
CN(C)CCCn1cc(C2=C(c3c[nH]c4ccccc34)C(=O)NC2=O)c2ccccc21
true
CCCCCC=C(C)C(CC)CCO (stereo unspecified)
false

Q: What call does the record list for C[C@@H]1CC[C@@H](C(C)(C)O)[C@H](O)C1 ?
A: false

* * *

- experimental_protocol: CCTE_Shafer_MEA_dev_interburst_interval_mean: CCTE's Neural Network Formation Assay for Mean Interburst Interval, Shafer Lab (AID 2284046);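 further: well-mean interburst interval of bursting electrodes as AUC over four recording days; curve fitted for decrease in interburst interval relative to DMSO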
The source made the active and inactive calls. The calls were made as follows: active = hit-call score of the fitted dose curve at least 0.9, where 1 is the maximum; inactive = score below 0.9.
experimental_readout: outcome

CCCCCC(C)(CC)C(=O)NC (stereo not drawn)
inactive
CC(C)O
inactive
c1ccc2c(c1)ccc1c3ccccc3ccc21
inactive

* * *

- experimental_protocol: IUF_NPC3_neuronal_differentiation_120hr: Leibniz Research Institute for Environmental Medicine (IUF) 120-hour Neuronal Differentiation Assay (NPC3) (AID 2284301)
Calls of active or inactive are those of the source. The calls were made as follows: active = hit-call score of the fitted dose curve at least 0.9, where 1 is the maximum; inactive = score below 0.9.
Entry note: the call must match one of active, inactive

Previously resolved entries follow.
BrC1CC(Br)CC(Br)CC(Br)CC(Br)CC(Br)C1 (stereo not drawn)
active
Cc1[nH]n(C)c(=O)c1C(=O)c1ccc(C(F)(F)F)cc1S(C)(=O)=O
inactive

# evaluate next
Q: What call does the record list for C[C@@H]1CCO[C@H]2Cn3cc(C(=O)NCc4ccc(F)cc4F)c(=O)c(O)c3C(=O)N12 ?
A: inactive

* * *

- experimental_protocol: CCTE_Shafer_MEA_dev_network_spike_peak: CCTE's Neural Network Formation Assay for Mean Number of Electrodes in Network Spike, Shafer Lab (AID 2284049)
The source made the active and inactive calls. The calls were made as follows: active = hit-call score of the fitted dose curve at least 0.9, where 1 is the maximum; inactive = score below 0.9.
Entry note: the call must match one of active, inactive

Previously resolved entries follow.
O=C1CC2(CCCC2)CC(=O)N1CCCCN1CCN(c2ncccn2)CC1
active
CC(C)c1nn(C(=O)NC(C)(C)C)c(=O)n1N
inactive
[O]=[V]([OH])([OH])[OH]
active
c1cc2c3c(c1)ccc1cccc(c13)C2
inactive
CCc1ccccc1
inactive

Q: What call does the record list for Cc1[nH]n(C)c(=O)c1C(=O)c1ccc(C(F)(F)F)cc1S(C)(=O)=O ?
A: inactive

Q: What call does the record list for F ?
A: inactive

Q: What call does the record list for CCCCCC=C(C)C(CC)CCO (stereo not given) ?
A: inactive

Q: What call does the record list for c1ccc2c(c1)ccc1c3ccccc3ccc21 ?
A: inactive

Q: What call does the record list for BrC1CC(Br)CC(Br)CC(Br)CC(Br)CC(Br)C1 (stereo not given) ?
A: active

* * *

- experimental_protocol: TOX21_TRB_BLA_Antagonist_Followup_viability: Viability Assessment in the Tox21 Thyroid Hormone Receptor beta Antagonism Beta-lactamase (BLA) Follow-Up Assay (AID 2283961)
Results filed as inconclusive are left out. Active and inactive are the calls of the source. Rule for the calls: active = hit-call score of the fitted dose curve at least 0.9, where 1 is the maximum; inconclusive = response in the unintended direction; inactive = score below 0.9.
Entry note: the call must match one of active, inactive

CCOC(=O)C1=C[C@]2(CC)CCCN3CCc4c(n1c1ccccc41)[C@@H]32
inactive
O=c1[nH]c(=O)n([C@H]2C[C@H](O)[C@@H](CO)O2)cc1C(F)(F)F
inactive
COc1cc(C(=O)NC2CCCNC2)cc(OC)c1OC (stereo unspecified)
inactive
COc1cc(NCc2ccc3nc(N)nc(N)c3c2C)cc(OC)c1OC
active
COc1ccc2c(c1)N(C[C@H](C)CN(C)C)c1ccccc1S2
inactive

Q: What call does the record list for C#C[C@]1(O)CC[C@H]2[C@@H]3CCC4=CC(=O)CC[C@@H]4[C@H]3C(=C)C[C@@]21CC ?
A: inactive

meta.source: PubChem BioAssay (EPA / NIEHS)
